System: replicon cells (1b-Con1)
Experiment: Replicon activity assay (replicon RNA level by real-time RT-PCR, Taqman)
Format: cell-based
Details: Hepatitis C virus, HCV replicon genotype 1b; read-out: EC50 (1b) Range
Procedure: To measure cell-based anti-HCV activity of the compounds of the present invention, replicon cells (1b-Con1) are seeded at 5000 cells/well in 96-well plates one day prior to treatment with a compound of the invention. […] Cells are harvested three days post-dosing, and the replicon RNA level is determined using real-time RT-PCR (Taqman assay) with GAPDH RNA as endogenous control. EC50 values are calculated from experiments with 10 serial twofold dilutions of the inhibitor in triplicate. […]
This listing pairs compounds with measured EC50.

>  <Compound>
C#C[C@]1(C)[C@@H]2O[P@@](=O)(OCCC(C)(C)C(=O)OC(C)C)OC[C@H]2O[C@H]1n1ccc(=O)[nH]c1=O [Compound 20A]

>  <EC50>
> 10 µM

$$$$
>  <Compound>
C#C[C@]1(C)[C@@H]2O[P@](=O)(OC[C@H](CC(=O)OC(C)C)OC(C)=O)OC[C@H]2O[C@H]1n1ccc(=O)[nH]c1=O [Compound 55B]

>  <EC50>
> 10 µM

$$$$

As a next step, examine the compound that follows.
Problem: Field: EC50 (replicon cells (1b-Con1)). Entry: C#C[C@]1(C)[C@@H]2O[P@](=O)(OCC[C@H](NC(=O)OC)C(=O)OC(C)C)OC[C@H]2O[C@H]1n1ccc(=O)[nH]c1=O [Compound 43B]
Result: > 10 µM
